Origin of the recorded values: the RNAGym collection of RNA variant scans (doi:10.7554/elife.80360)

Below, each entry is listed alongside its reported self-cleavage.
B1: HDV Ribozyme (parent)
chain: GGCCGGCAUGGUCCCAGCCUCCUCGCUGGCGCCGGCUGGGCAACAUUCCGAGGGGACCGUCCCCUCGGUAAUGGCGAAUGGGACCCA

Variants of: B1
assay.remarks: self-cleavage, relative activity (ratio to wild type); higher = more cleavage; co-transcriptional
In your answer, state the number alone without any accompanying words.

Worked cases, answers included:
mutant.id	observed
A45C U79G	0.293
C21U G29C	0.0773
G5A G40A	0.0992
G67U G73C	0.437
C24A A71C	0.38
C57A C84G	0.727

Need self-cleavage, item C15G C58G
0.612

Next up: U46C G68C
0.739

Next up: U9A G34C
0.375

Next up: C14U U69C
1.4
